- TESTED TARGET: CFTR-mediated chloride transport in human intestinal epithelial enteroid cells (Homo sapiens, UniProt P13569)
- Sequence (P13569 with tags, fused parts or gaps DEL508-508): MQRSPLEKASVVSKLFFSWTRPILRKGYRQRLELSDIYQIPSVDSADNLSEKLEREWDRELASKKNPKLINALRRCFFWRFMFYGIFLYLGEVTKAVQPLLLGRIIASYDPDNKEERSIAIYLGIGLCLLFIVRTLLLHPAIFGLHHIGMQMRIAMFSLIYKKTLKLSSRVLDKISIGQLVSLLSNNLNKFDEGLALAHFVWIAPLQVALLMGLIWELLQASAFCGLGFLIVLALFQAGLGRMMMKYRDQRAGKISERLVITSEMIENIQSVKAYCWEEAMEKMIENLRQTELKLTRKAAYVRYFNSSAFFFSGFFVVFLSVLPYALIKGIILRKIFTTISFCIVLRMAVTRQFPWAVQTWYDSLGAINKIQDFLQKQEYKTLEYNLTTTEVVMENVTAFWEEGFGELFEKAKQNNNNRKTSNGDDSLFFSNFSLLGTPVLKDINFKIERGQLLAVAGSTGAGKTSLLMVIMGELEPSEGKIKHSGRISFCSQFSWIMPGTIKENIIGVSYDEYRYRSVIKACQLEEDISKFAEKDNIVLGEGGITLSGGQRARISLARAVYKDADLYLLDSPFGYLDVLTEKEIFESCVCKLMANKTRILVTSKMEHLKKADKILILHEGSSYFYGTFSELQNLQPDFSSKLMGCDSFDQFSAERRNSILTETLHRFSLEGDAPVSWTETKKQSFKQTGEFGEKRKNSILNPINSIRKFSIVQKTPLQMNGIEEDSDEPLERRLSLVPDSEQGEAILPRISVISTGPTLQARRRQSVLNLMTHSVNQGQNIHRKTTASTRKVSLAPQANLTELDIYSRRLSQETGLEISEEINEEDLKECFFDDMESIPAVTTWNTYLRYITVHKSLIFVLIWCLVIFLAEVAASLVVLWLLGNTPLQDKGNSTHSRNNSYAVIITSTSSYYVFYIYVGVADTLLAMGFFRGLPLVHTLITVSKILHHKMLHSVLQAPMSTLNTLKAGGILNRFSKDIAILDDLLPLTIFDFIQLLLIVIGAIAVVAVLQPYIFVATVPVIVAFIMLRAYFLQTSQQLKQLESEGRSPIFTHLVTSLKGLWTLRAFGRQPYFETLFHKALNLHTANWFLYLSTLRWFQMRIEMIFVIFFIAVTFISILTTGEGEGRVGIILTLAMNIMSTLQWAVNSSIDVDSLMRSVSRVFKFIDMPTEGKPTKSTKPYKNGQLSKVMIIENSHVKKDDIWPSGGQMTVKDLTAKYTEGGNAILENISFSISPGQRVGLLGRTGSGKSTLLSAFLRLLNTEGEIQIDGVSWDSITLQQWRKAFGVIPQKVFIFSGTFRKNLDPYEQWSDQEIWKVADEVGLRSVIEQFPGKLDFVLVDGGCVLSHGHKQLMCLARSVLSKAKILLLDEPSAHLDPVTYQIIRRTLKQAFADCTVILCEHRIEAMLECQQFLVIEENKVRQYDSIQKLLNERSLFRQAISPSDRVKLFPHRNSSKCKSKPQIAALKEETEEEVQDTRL
- TEST: Membrane potential dye, Enteroid Assay A
- Format: cell-based
- ASSAY CONTEXT: % of chloride transport of triple combination control (3 μM N-[(6-amino-2-pyridyl)sulfonyl]-6-(3-fluoro-5-isobutoxy-phenyl)-2-[(4S)-2,2,4-trimethylpyrrolidin-1-yl]pyridine-3-carboxamide, 3 μM tezacaftor, 300 nM acute ivacaftor)
MEASURED PARAMETER: Ent. A Max Activity (%)

Solved entries:
Cc1cccc(C)c1-c1cc2nc(n1)NS(=O)(=O)c1cccc(c1)NC(=O)[C@@H]1C[C@@H](CN(C(=O)OCCF)C1)O2	++ (++ is 30-60%)
Cc1cccc(C)c1-c1cc2nc(n1)NS(=O)(=O)c1cccc(c1)NC(=O)c1ccc(Cl)c(c1)O2	+++ (+++ is >60%)
Cc1cccc(C)c1-c1cc2nc(n1)NS(=O)(=O)c1cccc(c1)NC(=O)[C@@H]1C[C@@H](CN(CCCCC(C)(C)C)C1)O2	++ (++ is 30-60%)
Cc1cccc(C)c1-c1cc2nc(n1)NS(=O)(=O)c1cccc(c1)NC(=O)[C@@H]1C[C@H](O2)C(=O)N(CCC(C)(C)C)C1 [Compound 88]	++ (++ is 30-60%)
Cc1cccc(C)c1-c1cc2nc(n1)NS(=O)(=O)c1cccc(c1)NC(=O)Cc1cccc(c1)O2	++ (++ is 30-60%)

q: Looking for the measured Ent. A Max Activity (%) of `Cc1cccc(C)c1-c1cc2nc(n1)NS(=O)(=O)c1cccc(c1)NC(=O)[C@@H]1C[C@@H](CN(C3CCCCC3)C1)O2` , can you help?
a: ++ (++ is 30-60%)

q: Field entry: Cc1cccc(C)c1-c1cc2nc(n1)NS(=O)(=O)c1cccc(n1)NC(=O)C1CC(CN(CCC(C)(C)C3CC3)C1)O2 (stereo not shown)
a: ++ (++ is 30-60%)

q: Field entry: `Cc1cccc(C)c1-c1cc2nc(n1)NS(=O)(=O)c1cccc(c1)NC(=O)[C@H]1CNC[C@H](C1)O2`
a: + (+ is <30%)
